# experiment notes: Tmax in CD-1 mouse plasma at 3 mg/kg, po and measured upto 24 hrs by LC-MS/MS analysis
# Assay type: ADME, organism-based
property label: Tmax

[[record]]
smiles_data = "FC(F)(F)c1nccc2cc(Nc3n[nH]c4ncccc34)ccc12"
result = "25.2 min"


###

# experiment notes: AUC in Sprague-Dawley rat at 30 mg/kg, po administered as spray-dried dispersion formulation and measured after 24 hrs by LC-MS/MS analysis
# Format: ADME, organism-based
# Parameters: dose 30 mg/kg, time 24 hrs, route po
# condition details: in vivo
property label: AUC at 24 h (µM·h)

[[record]]
smiles_data = "FC(F)(F)c1nccc2cc(Nc3n[nH]c4ncccc34)ccc12"
property_label = "AUC at 24 h"
numeric_result = 83.9

